meta.source: PubChem BioAssay AID2060604

system: 379773-124-R-J2-PDC complex spheroids, viability % test/control; assay: Anticancer human tumor 379773-124-R-J2-PDC patient-derived endometrial carcinoma cell line growth inhibition [CLK]; conditions: second compound 10 µM; first compound 0.316 µM; stronger effect = lower value;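 further: compound exposure lasted seven days before the viability readout; 100% = DMSO vehicle control wells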
# viability, T/C per record follows
measure: viability, T/C (%)

1) Nc1ccccc1NC(=O)c1ccc(CNC(=O)OCc2cccnc2)cc1 + CNC(=O)c1ccc(Nc2nc(OC3CCCC3)c3c(-c4ccc5nc(C)oc5c4)c[nH]c3n2)c(OC)c1 :: 25.2
2) COc1ccc([C@@H](O)c2cc(-c3ncnc4cc(N5CCOCC5)ccc34)c(F)cc2Cl)nn1 + CN1CCN(c2cc(C(=O)Nc3cc4cc(-c5cnn(C)c5)ccc4cn3)ccn2)CC1 :: 0.79
3) COC1C=CCC(C)C(C)S(=O)(=O)NC(=O)c2ccc3c(c2)N(CC2CCC21)CC1(CCCc2cc(Cl)ccc21)CO3 (centres undefined) + CNC(=O)c1ccc(Nc2nc(OC3CCCC3)c3c(-c4ccc5nc(C)oc5c4)c[nH]c3n2)c(OC)c1 :: 30.4
4) CCN1CCN(Cc2ccc(Nc3ncc(F)c(-c4cc(F)c5nc(C)n(C(C)C)c5c4)n3)nc2)CC1 + CN1CCN(c2cc(C(=O)Nc3cc4cc(-c5cnn(C)c5)ccc4cn3)ccn2)CC1 :: 0.15
